tested on: OACM5-1 (Esophageal Adenocarcinoma); experiment: combination Emax (second highest fraction inhibited in the dose matrix, 72 h); higher = more inhibition; extreme values may be limits of the assay
quantity kind: combination Emax

{"molecule": "Cc1c2c(nn1C)CSCc1cc(n(C)n1)CSc1cc(c3ccccc3c1)OCCCc1c(C(=O)O)n(C)c3c-2c(Cl)ccc13 [AZD5991] + C=CCn1c(=O)c2cnc(Nc3ccc(N4CCN(C)CC4)cc3)nc2n1-c1cccc(C(C)(C)O)n1 [AZD1775] (first compound max 1 µM, partner max 1 µM)", "result": 0.928}
{"molecule": "CN(CCO)CC[C@H](CSc1ccccc1)Nc1ccc(S(=O)(=O)NC(=O)c2ccc(N3CCC([C@@H](O)c4ccccc4-c4ccc(Cl)cc4)CC3)cc2)cc1S(=O)(=O)C(F)(F)F [AZD4320] + C1CN(CCC1(C(=O)N[C@@H](CCO)C2=CC=C(C=C2)Cl)N)C3=NC=NC4=C3C=CN4 [Capivasertib] (first compound max 1 µM, 7x7, partner max 3 µM)", "result": 0.617}
{"molecule": "CC1(C)CCC(CN2CCN(c3ccc(C(=O)NS(=O)(=O)c4ccc(NCC5CCOCC5)c([N+](=O)[O-])c4)c(Oc4cnc5[nH]ccc5c4)c3)CC2)=C(c2ccc(Cl)cc2)C1 [Venetoclax] + C[C@@H]1COCCN1C2=NC(=NC(=C2)C3(CC3)[S@](=N)(=O)C)C4=C5C=CNC5=NC=C4 [AZD6738] (first compound max 1 µM, 7x7, partner max 10 µM)", "result": 0.678}

* * *

system: LC-1-sq (Squamous Cell Lung Carcinoma); assay: Bliss excess, mean over the matrix (fraction); higher = more synergy
Rule: Bliss excess of -0.02 or more gives True; anything lower gives False.

{"molecule": "NC1(C(=O)N[C@@H](CCO)c2ccc(Cl)cc2)CCN(c2ncnc3[nH]ccc23)CC1 [Capivasertib] + CC(=O)c1c(C)c2cnc(Nc3ccc(N4CCNCC4)cn3)nc2n(C2CCCC2)c1=O [Palbociclib] (first compound max 10 µM, 7x7, partner max 10 µM)", "discrete label": "False"}
{"molecule": "CCc1c2c(nc3ccc(O)cc13)-c1cc3c(c(=O)n1C2)COC(=O)[C@]3(O)CC [SN-38] + O=C(c1cc(Cc2n[nH]c(=O)c3ccccc23)ccc1F)N1CCN(C(=O)C2CC2)CC1 [Olaparib] (first compound max 0.3 µM, 7x7, partner max 10 µM)", "discrete label": "True"}
{"molecule": "CC1(C)CCC(CN2CCN(c3ccc(C(=O)NS(=O)(=O)c4ccc(NCC5CCOCC5)c([N+](=O)[O-])c4)c(Oc4cnc5[nH]ccc5c4)c3)CC2)=C(c2ccc(Cl)cc2)C1 [Venetoclax] + C[C@@H](Nc1cc(F)cc(F)c1)c1cc(C(=O)N(C)C)cc2c(=O)cc(N3CCOCC3)oc12 [AZD8186] (first compound max 1 µM, 7x7, partner max 3 µM)", "discrete label": "False"}
{"molecule": "C=CCn1c(=O)c2cnc(Nc3ccc(N4CCN(C)CC4)cc3)nc2n1-c1cccc(C(C)(C)O)n1 [AZD1775] + C1CN(CCC1(C(=O)N[C@@H](CCO)C2=CC=C(C=C2)Cl)N)C3=NC=NC4=C3C=CN4 [Capivasertib] (first compound max 3 µM, partner max 3 µM)", "discrete label": "False"}
{"molecule": "Cc1c2c(nn1C)CSCc1cc(n(C)n1)CSc1cc(c3ccccc3c1)OCCCc1c(C(=O)O)n(C)c3c-2c(Cl)ccc13 [AZD5991] + CC1(C)CCC(CN2CCN(c3ccc(C(=O)NS(=O)(=O)c4ccc(NCC5CCOCC5)c([N+](=O)[O-])c4)c(Oc4cnc5[nH]ccc5c4)c3)CC2)=C(c2ccc(Cl)cc2)C1 [Venetoclax] (first compound max 1 µM, 7x7, partner max 1 µM)", "discrete label": "True"}

* * *

test system: KOPN-8 (B-Lymphoblastic Leukemia); assay: Bliss excess, mean over the matrix (fraction); higher = more synergy
Below, each of the compounds is paired with its reported Bliss excess value.

{"compound": "Cc1cc2ncnn2cc1Nc1ncc2c(n1)n(C1CCOCC1)c(=O)n2C [AZD7648] + C[C@@H]1COCCN1C2=NC(=NC(=C2)C3(CC3)[S@](=N)(=O)C)C4=C5C=CNC5=NC=C4 [AZD6738] (first compound max 10 µM, 7x7, partner max 10 µM)", "Bliss excess": -0.0187}
{"compound": "Cc1nc(Nc2ncc(C(=O)Nc3c(C)cccc3Cl)s2)cc(N2CCN(CCO)CC2)n1 [Dasatinib] + CC(=O)Nc1cccc(-n2c(=O)n(C3CC3)c(=O)c3c(Nc4ccc(I)cc4F)n(C)c(=O)c(C)c32)c1 [Trametinib] (first compound max 2 µM, 7x7, partner max 1 µM)", "Bliss excess": -0.188}
{"compound": "C[C@@H]1COCCN1c1cc(C2([S@](C)(=N)=O)CC2)nc(-c2ccnc3[nH]ccc23)n1 [AZD6738] + O=C(c1cc(Cc2n[nH]c(=O)c3ccccc23)ccc1F)N1CCN(C(=O)C2CC2)CC1 [Olaparib] (first compound max 10 µM, 7x7, partner max 10 µM)", "Bliss excess": -0.0358}
{"compound": "CC1(C)CCC(CN2CCN(c3ccc(C(=O)NS(=O)(=O)c4ccc(NCC5CCOCC5)c([N+](=O)[O-])c4)c(Oc4cnc5[nH]ccc5c4)c3)CC2)=C(c2ccc(Cl)cc2)C1 [Venetoclax] + CCN(CCO)CCCOc1ccc2c(Nc3cc(CC(=O)Nc4cccc(F)c4)[nH]n3)ncnc2c1 [AZD2811] (first compound max 1 µM, 7x7, partner max 1 µM)", "Bliss excess": 0.0169}
{"compound": "CN(CCO)CC[C@H](CSc1ccccc1)Nc1ccc(S(=O)(=O)NC(=O)c2ccc(N3CCC([C@@H](O)c4ccccc4-c4ccc(Cl)cc4)CC3)cc2)cc1S(=O)(=O)C(F)(F)F [AZD4320] + Cc1cc2ncnn2cc1Nc1ncc2c(n1)n(C1CCOCC1)c(=O)n2C [AZD7648] (first compound max 1 µM, 7x7, partner max 10 µM)", "Bliss excess": -0.0243}
{"compound": "CC1(C)CCC(CN2CCN(c3ccc(C(=O)NS(=O)(=O)c4ccc(NCC5CCOCC5)c([N+](=O)[O-])c4)c(Oc4cnc5[nH]ccc5c4)c3)CC2)=C(c2ccc(Cl)cc2)C1 [Venetoclax] + COc1cc(Nc2ncc3c(n2)-c2ccc(Cl)cc2C(c2c(F)cccc2OC)=NC3)ccc1C(=O)O [Alisertib] (first compound max 1 µM, 7x7, partner max 10 µM)", "Bliss excess": 0.036}
{"compound": "CN(CCO)CC[C@H](CSc1ccccc1)Nc1ccc(S(=O)(=O)NC(=O)c2ccc(N3CCC([C@@H](O)c4ccccc4-c4ccc(Cl)cc4)CC3)cc2)cc1S(=O)(=O)C(F)(F)F [AZD4320] + C=CCn1c(=O)c2cnc(Nc3ccc(N4CCN(C)CC4)cc3)nc2n1-c1cccc(C(C)(C)O)n1 [AZD1775] (first compound max 1 µM, partner max 1 µM)", "Bliss excess": 0.0016}
{"compound": "NC1(C(=O)N[C@@H](CCO)c2ccc(Cl)cc2)CCN(c2ncnc3[nH]ccc23)CC1 [Capivasertib] + CC(=O)c1c(C)c2cnc(Nc3ccc(N4CCNCC4)cn3)nc2n(C2CCCC2)c1=O [Palbociclib] (first compound max 10 µM, 7x7, partner max 10 µM)", "Bliss excess": -0.0079}
{"compound": "C=CCn1c(=O)c2cnc(Nc3ccc(N4CCN(C)CC4)cc3)nc2n1-c1cccc(C(C)(C)O)n1 [AZD1775] + C1CN(CCC1(C(=O)N[C@@H](CCO)C2=CC=C(C=C2)Cl)N)C3=NC=NC4=C3C=CN4 [Capivasertib] (first compound max 3 µM, partner max 3 µM)", "Bliss excess": 0.0369}
{"compound": "COc1nnc2ccc(N3CCC(c4ccc(OCCN5CCN(C)C(=O)[C@H]5C)cc4)CC3)nn12 [AZD5153] + CCN(CCO)CCCOc1ccc2c(Nc3cc(CC(=O)Nc4cccc(F)c4)[nH]n3)ncnc2c1 [AZD2811] (first compound max 1 µM, 7x7, partner max 1 µM)", "Bliss excess": -0.0341}

* * *

system: HCC1937 (Breast Carcinoma); assay: combination Emax (second highest fraction inhibited in the dose matrix, 72 h); higher = more inhibition; extreme values may be limits of the assay

{"molecule": "COc1cccc(OCCCN)c1-c1cc(Nc2cnc(C#N)cn2)n[nH]1 [Prexasertib] + CN(C)CCCOc1ccc(-c2ccc3ncc4c(c3c2)n(C2CCOCC2)c(=O)n4C)cn1 [AZD0156] (first compound max 1 µM, 7x7, partner max 1 µM)", "combination Emax": 0.537}
{"molecule": "CCc1c2c(nc3ccc(O)cc13)-c1cc3c(c(=O)n1C2)COC(=O)[C@]3(O)CC [SN-38] + CN(C)CCCOc1ccc(-c2ccc3ncc4c(c3c2)n(C2CCOCC2)c(=O)n4C)cn1 [AZD0156] (first compound max 0.3 µM, 7x7, partner max 1 µM)", "combination Emax": 0.487}
{"molecule": "CC(=O)Nc1cccc(-n2c(=O)n(C3CC3)c(=O)c3c(Nc4ccc(I)cc4F)n(C)c(=O)c(C)c32)c1 [Trametinib] + Cc1nc(-c2cn3c(n2)-c2ccc(-c4cnn(C(C)(C)C(N)=O)c4)cc2OCC3)n(C(C)C)n1 [Taselisib] (first compound max 1 µM, 7x7, partner max 10 µM)", "combination Emax": 0.722}
{"molecule": "CC1(C)CCC(CN2CCN(c3ccc(C(=O)NS(=O)(=O)c4ccc(NCC5CCOCC5)c([N+](=O)[O-])c4)c(Oc4cnc5[nH]ccc5c4)c3)CC2)=C(c2ccc(Cl)cc2)C1 [Venetoclax] + C=CCn1c(=O)c2cnc(Nc3ccc(N4CCN(C)CC4)cc3)nc2n1-c1cccc(C(C)(C)O)n1 [AZD1775] (first compound max 1 µM, partner max 1 µM)", "combination Emax": 0.406}

meta.source: the supplement of paper PMC11061612
